- test.target: UniProt P31390
- Sequence (P31390 whole entry): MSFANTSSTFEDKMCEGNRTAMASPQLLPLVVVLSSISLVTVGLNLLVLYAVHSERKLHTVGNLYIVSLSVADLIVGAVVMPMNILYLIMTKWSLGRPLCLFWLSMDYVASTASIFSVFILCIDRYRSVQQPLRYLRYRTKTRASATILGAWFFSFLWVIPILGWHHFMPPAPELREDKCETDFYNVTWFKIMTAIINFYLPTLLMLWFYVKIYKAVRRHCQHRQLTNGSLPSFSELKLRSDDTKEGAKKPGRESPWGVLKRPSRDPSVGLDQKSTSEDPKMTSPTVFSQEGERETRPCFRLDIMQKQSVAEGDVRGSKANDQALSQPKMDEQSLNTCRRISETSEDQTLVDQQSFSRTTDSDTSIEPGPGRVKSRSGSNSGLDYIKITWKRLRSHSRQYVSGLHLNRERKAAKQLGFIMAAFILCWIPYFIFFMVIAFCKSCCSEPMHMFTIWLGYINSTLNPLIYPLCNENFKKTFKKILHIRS
Hi! Could you tag entries with Ki below 30 nM as TRUE, and those at or above as FALSE? Much appreciated.

>>> label("c1ccc(C(c2ccccc2)C2CCN(CCCCCc3c[nH]cn3)CC2)cc1")
"TRUE"
>>> label("Clc1ccc(C(c2ccccn2)N2CCN(Cc3c[nH]cn3)CC2)cc1 (stereo not shown)")
"TRUE"
>>> label("Clc1ccc(C(c2ccccc2)N2CCN(Cc3c[nH]cn3)CC2)cc1 (stereo not shown)")
"TRUE"
>>> label("Clc1ccc(C(c2ccccn2)N2CCN(CCCc3c[nH]cn3)CC2)cc1 (stereo not shown)")
"FALSE"

# input Dear colleague, could you confirm whether Ki of "Clc1ccc(C(=C2CCN(CCCCc3c[nH]cn3)CC2)c2ccccn2)cc1" falls below 30 nM? Thanks.
# output TRUE

# input Dear colleague, could you confirm whether Ki of "c1ccc(C(CCN2CCN(Cc3c[nH]cn3)CC2)c2ccccc2)cc1" falls below 30 nM? Thanks.
# output FALSE

# input Dear colleague, could you confirm whether Ki of Clc1ccc(C(CCN2CCN(CCCCc3c[nH]cn3)CC2)c2ccccn2)cc1 (stereo not shown) falls below 30 nM? Thanks.
# output TRUE

----------
- test.target: H3 receptors (Cavia porcellus)
- Sequence (Q9JI35 whole entry): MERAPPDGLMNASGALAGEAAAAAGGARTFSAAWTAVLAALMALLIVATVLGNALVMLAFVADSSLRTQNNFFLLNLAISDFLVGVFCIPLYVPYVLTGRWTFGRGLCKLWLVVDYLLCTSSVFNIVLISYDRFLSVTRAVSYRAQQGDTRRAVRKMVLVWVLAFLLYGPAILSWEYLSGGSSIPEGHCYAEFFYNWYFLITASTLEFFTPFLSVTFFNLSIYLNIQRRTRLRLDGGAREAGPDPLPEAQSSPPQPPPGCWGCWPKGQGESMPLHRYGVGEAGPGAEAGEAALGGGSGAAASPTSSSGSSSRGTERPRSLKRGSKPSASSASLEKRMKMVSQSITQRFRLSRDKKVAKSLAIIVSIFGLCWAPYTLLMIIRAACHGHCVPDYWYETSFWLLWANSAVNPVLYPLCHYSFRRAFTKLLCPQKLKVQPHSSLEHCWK
The following molecules are listed with their measured pKi values.
Scale: negative log10 of molar concentration, which is what pKi denotes.

>>> reported_measurement("Clc1ccc(C(=C2CCN(CCCCCCc3c[nH]cn3)CC2)c2ccccn2)cc1")
7.96
>>> reported_measurement("Clc1ccc(C(=C2CCN(CCCCc3c[nH]cn3)CC2)c2ccccn2)cc1")
8.52
>>> reported_measurement("Clc1ccc(C(CN2CCC(CCc3c[nH]cn3)C2)c2ccc(Cl)cc2)cc1 (centres unmarked)")
7.60
>>> reported_measurement("O=C(COCCN1CCN(C(c2ccccc2)c2ccc(Cl)cc2)CC1)NCCCCc1c[nH]cn1 (centres unmarked)")
7.41
>>> reported_measurement("c1ccc(C(c2ccccc2)C2CCN(CCCCCc3c[nH]cn3)CC2)cc1")
7.72

# input Query the reported pKi for H3 receptors (Cavia porcellus); item: O=C(C(c1ccc(Cl)cc1)c1ccc(Cl)cc1)N1CCC(CCc2c[nH]cn2)C1 (centres unmarked)
# output 8.02

# input Query the reported pKi for H3 receptors (Cavia porcellus); item: "Clc1ccc(C(=C2CCN(CCCCCc3c[nH]cn3)CC2)c2ccccn2)cc1"
# output 8.10

# input Query the reported pKi for H3 receptors (Cavia porcellus); item: "O=C(C(c1ccccc1)c1ccccc1)N1CCC(Cc2c[nH]cn2)CC1"
# output 7.18

# input Query the reported pKi for H3 receptors (Cavia porcellus); item: Clc1ccc(C(c2ccccn2)N2CCN(CCCCc3c[nH]cn3)CC2)cc1 (centres unmarked)
# output 7.41

# input Query the reported pKi for H3 receptors (Cavia porcellus); item: Clc1ccc(C(c2ccccc2)N2CCN(Cc3c[nH]cn3)CC2)cc1 (centres unmarked)
# output 7.00

# input Query the reported pKi for H3 receptors (Cavia porcellus); item: Clc1ccc(C(c2ccccn2)N2CCN(CCCCCCCNCCCCc3c[nH]cn3)CC2)cc1 (centres unmarked)
# output 7.68
